- Method: Concentrations of 24 analytes in QSG treated plasma (Table S5)
- Assay context: Sprague Dawley, rat, plasma, oral, 7 g/kg
Reported property: concentration at 4 h

> print(dat)
                                   molecule     observed
1  O=c1cc(-c2ccc(O)c(O)c2)oc2cc(O)cc(O)c12 [Luteolin]  0.251 ng/mL
2  COc1ccc(-c2coc3cc(O)ccc3c2=O)cc1O [Calycosin]  0.589 ng/mL
3  COc1ccc(-c2coc3cc(O)ccc3c2=O)cc1 [Formononetin]   1.03 ng/mL
4  O=C1C[C@@H](c2ccc(O[C@@H]3O[C@H](CO)[C@@H](O)[C@H](O)[C@H]3O)cc2)Oc2cc(O)ccc21 [Liquiritin]   4.02 ng/mL
5  O=C(/C=C/c1ccc(O)cc1)c1ccc(O)cc1O [Isoliquiritigenin]  0.231 ng/mL
6  O=C(/C=C/c1ccc(O)c(O)c1)O[C@@H]1C[C@](O)(C(=O)O)C[C@@H](O)[C@H]1O [Chlorogenic acid]   68.1 ng/mL

* * *

The entries below come with measured AUC values attached.
- Method: Pharmacokinetic study in rats after oral administration of QSG
- Assay context: Sprague Dawley, rat, plasma, po, 7 g/kg
Reported property: AUC (ng·h/mL)

> print(dat)
                                chem.smiles  units.symbol  observed
1   O=c1cc(-c2ccc(O)c(O)c2)oc2cc(O)cc(O)c12       ng·h/mL      10.9
2          COc1ccc(-c2coc3cc(O)ccc3c2=O)cc1       ng·h/mL      27.7
3  O=C(/C=C/c1ccc(O)c(O)c1)O[C@@H]1C[C@](O)(C(=O)O)C[C@@H](O)[C@H]1O       ng·h/mL      1420
4         O=C(/C=C/c1ccc(O)cc1)c1ccc(O)cc1O       ng·h/mL      4.89

* * *

The entries below come with measured log10(Concentration) values attached.
- Method: Concentrations of 24 analytes in QSG treated plasma (Table S5)
- Assay context: QSG treated plasma, 0.5 h, n = 5
Reported property: log10(Concentration) (log10 of the value in ng/mL)

Molecule	log10(Concentration)
O=C(/C=C/c1ccc(O)c(O)c1)O[C@H]1[C@H](O)C[C@](O)(C(=O)O)C[C@H]1OC(=O)/C=C/c1ccc(O)c(O)c1	1.27
O=C(/C=C/c1ccc(O)c(O)c1)O[C@H]1[C@H](O)C[C@](O)(C(=O)O)C[C@H]1O	2.13
COC[C@]12O[C@H]1[C@@H](O)[C@@H]1C=CO[C@@H](O[C@@H]3O[C@H](CO)[C@@H](O)[C@H](O)[C@H]3O)[C@@H]12	0.36
COc1ccc(CCO[C@@H]2O[C@H](CO[C@@H]3OC[C@H](O)[C@H](O)[C@H]3O)[C@@H](OC(=O)/C=C/c3ccc(O)c(OC)c3)[C@H](O[C@@H]3O[C@@H](C)[C@H](O)[C@@H](O)[C@H]3O)[C@H]2O)cc1O [Angoroside C]	0.63
CC(C)(O)[C@@H]1CC[C@](C)([C@H]2[C@@H](O)C[C@@]3(C)[C@@H]4C[C@H](O[C@@H]5O[C@H](CO)[C@@H](O)[C@H](O)[C@H]5O)[C@H]5C(C)(C)[C@@H](O[C@@H]6OC[C@@H](O)[C@H](O)[C@H]6O)CC[C@@]56C[C@@]46CC[C@]23C)O1 [Astragaloside IV]	0.94
O=C1C[C@@H](c2ccc(O)cc2)Oc2cc(O)ccc21	0.64
C=C[C@H]1[C@H](O[C@@H]2O[C@H](CO)[C@@H](O)[C@H](O)[C@H]2O)OC=C(C(=O)O)[C@H]1CC(=O)O [Secologanoside]	0.62
COc1ccc(-c2coc3cc(O[C@@H]4O[C@H](CO)[C@@H](O)[C@H](O)[C@H]4O)ccc3c2=O)cc1O [Calycosin-7-O-glucoside, Calycosin-7-O-D-glucoside]	0.94

* * *

- Method: Concentrations of 24 analytes in QSG treated plasma (Table S5)
- Assay context: Sprague Dawley, rat, in vivo, 7 g/kg

Molecule	Units symbol	concentration at 2 h
O=C(/C=C/c1ccc(O[C@@H]2O[C@H](CO)[C@@H](O)[C@H](O)[C@H]2O)cc1)c1ccc(O)cc1O [Isoliquiritin]	ng/mL	0.456
COC[C@@]12CC[C@H](OC)[C@]34C(C([C@H](OC)[C@H]13)[C@]1(OC(C)=O)[C@H]3[C@@H](OC(=O)c5ccccc5)[C@](O)(C[C@H]34)[C@@H](OC)[C@@H]1O)N(C)C2 [Hypaconitine]	ng/mL	0.331

* * *

- Method: Concentrations of 24 analytes in QSG treated plasma (Table S5)
- Assay context: QSG treated plasma, 4 h, n = 5
The entries below come with measured Concentration values attached.
Reported property: Concentration (ng/mL)

> print(dat)
                                   compound  reported.property  units.symbol  observed
1  O=C1C[C@@H](c2ccc(O)cc2)Oc2cc(O)ccc21 [Liquiritigenin]      Concentration         ng/mL     2.064
2  O=C(/C=C/c1ccc(O)c(O)c1)O[C@H]1[C@H](O)C[C@](O)(C(=O)O)C[C@H]1O [Cryptochlorogenic acid]      Concentration         ng/mL    18.424
3  O=C(/C=C/c1ccc(O)c(O)c1)O[C@H]1[C@H](O)C[C@](O)(C(=O)O)C[C@H]1OC(=O)/C=C/c1ccc(O)c(O)c1 [Isochlorogenic acid C]      Concentration         ng/mL     2.637

* * *

The entries below come with measured Tmax values attached.
- Method: Pharmacokinetic study in rats after oral administration of QSG
- Assay context: rat plasma, single oral 7 g/kg QSG, n = 6
Reported property: Tmax (min)

Compound	Units symbol	Observed
CC(C)(O)[C@@H]1CC[C@](C)([C@H]2[C@@H](O)C[C@@]3(C)[C@@H]4C[C@H](O[C@@H]5O[C@H](CO)[C@@H](O)[C@H](O)[C@H]5O)[C@H]5C(C)(C)[C@@H](O[C@@H]6OC[C@@H](O)[C@H](O)[C@H]6O)CC[C@@]56C[C@@]46CC[C@]23C)O1 [Astragaloside IV]	min	15
O=C(/C=C/c1ccc(O)c(O)c1)O[C@H]1[C@H](O)C[C@](O)(C(=O)O)C[C@H]1O	min	21.8
O=C(/C=C/c1ccc(O)c(O)c1)O[C@@H]1C[C@@](O)(C(=O)O)C[C@@H](O)[C@@H]1O	min	23.9
O=C(/C=C/c1ccc(O)c(O)c1)O[C@H]1[C@H](O)C[C@](O)(C(=O)O)C[C@H]1OC(=O)/C=C/c1ccc(O)c(O)c1	min	20

* * *

- Method: Concentrations of 24 analytes in QSG treated plasma (Table S5)
- Assay context: QSG treated plasma, 0.17 h, n = 5
Simple rule here: Concentration less than 3 ng/mL is Criterion met, otherwise Criterion not met.

Compound	Class label
CC(C)(O)[C@@H]1CC[C@](C)([C@H]2[C@@H](O)C[C@@]3(C)[C@@H]4C[C@H](O[C@@H]5O[C@H](CO)[C@@H](O)[C@H](O)[C@H]5O)[C@H]5C(C)(C)[C@@H](O[C@@H]6OC[C@@H](O)[C@H](O)[C@H]6O)CC[C@@]56C[C@@]46CC[C@]23C)O1 [Astragaloside IV]	Criterion not met
COc1ccc(-c2coc3cc(O[C@@H]4O[C@H](CO)[C@@H](O)[C@H](O)[C@H]4O)ccc3c2=O)cc1O [Calycosin-7-O-glucoside, Calycosin-7-O-D-glucoside]	Criterion met
O=C(/C=C/c1ccc(O)c(O)c1)O[C@H]1[C@H](O)C[C@](O)(C(=O)O)C[C@H]1O	Criterion not met
O=C(/C=C/c1ccc(O)c(O)c1)O[C@H]1[C@H](O)C[C@](O)(C(=O)O)C[C@H]1OC(=O)/C=C/c1ccc(O)c(O)c1	Criterion not met

* * *

- Tested on: H9c2 cells
- Method: Cytotoxicity on H9c2 cells (CCK-8)
- Assay type: cell-based, rat
- Assay context: 25 μM, H9c2 cells, n=3

Compound	Inhibition rate
C=C[C@H]1[C@H](O[C@@H]2O[C@H](CO)[C@@H](O)[C@H](O)[C@H]2O)OC=C(C(=O)OC)[C@H]1CC(=O)O	3.5 ± 1.2%
O=c1cc(-c2ccc(O)c(O)c2)oc2cc(O[C@@H]3O[C@H](CO)[C@@H](O)[C@H](O)[C@H]3O)cc(O)c12 [Luteoloside]	-4.2 ± 4.7%
COC[C@]12O[C@H]1[C@@H](O)[C@@H]1C=CO[C@@H](O[C@@H]3O[C@H](CO)[C@@H](O)[C@H](O)[C@H]3O)[C@@H]12	2.8 ± 0.9%
O=C(/C=C/c1ccc(O)c(O)c1)O[C@H]1[C@H](O)C[C@](O)(C(=O)O)C[C@H]1OC(=O)/C=C/c1ccc(O)c(O)c1	-11.8 ± 6.3%
COc1ccc(CCO[C@@H]2O[C@H](CO[C@@H]3OC[C@H](O)[C@H](O)[C@H]3O)[C@@H](OC(=O)/C=C/c3ccc(O)c(OC)c3)[C@H](O[C@@H]3O[C@@H](C)[C@H](O)[C@@H](O)[C@H]3O)[C@H]2O)cc1O [Angoroside C]	3.6 ± 4.5%
O=C(/C=C/c1ccc(O)c(O)c1)O[C@H]1[C@H](O)C[C@](O)(C(=O)O)C[C@H]1O	-16.2 ± 4.2%
CC(C)(O)[C@@H]1CC[C@](C)([C@H]2[C@@H](O)C[C@@]3(C)[C@@H]4C[C@H](O[C@@H]5O[C@H](CO)[C@@H](O)[C@H](O)[C@H]5O)[C@H]5C(C)(C)[C@@H](O[C@@H]6OC[C@@H](O)[C@H](O)[C@H]6O)CC[C@@]56C[C@@]46CC[C@]23C)O1 [Astragaloside IV]	-6.7 ± 7.1%
COc1ccc(-c2coc3cc(O[C@@H]4O[C@H](CO)[C@@H](O)[C@H](O)[C@H]4O)ccc3c2=O)cc1O [Calycosin-7-O-glucoside, Calycosin-7-O-D-glucoside]	-1.2 ± 3.5%
